Values were extracted from ChEMBL document CHEMBL1201862.

Test system: ACHN
Assay: NCI tumour cell line growth inhibition, 48 h
Activity calls are given as the source filed them. Rule as the data show it: active = GI50 up to about 1.1 µM and inactive = higher.
Below, each of the molecules is paired with its reported GI50 value.

Answered examples (2):
CC(=O)c1cccc(Nc2c3ccccc3nc3occc23)c1
9.73 µM (inactive)
COC(=O)c1cc(C#N)[nH]c1-c1ccc(C)s1
41.3 µM (inactive)

Lab note: next molecule to report on.
Prompt: // lookup GI50 | system=ACHN | key= COc1ccc(Nc2nnc(CCCCCCCCc3nnc(Nc4ccc(OC)cc4)o3)o2)cc1
Response: > 100 µM (inactive)

---

System: SK-MEL-28
Test: NCI tumour cell line growth inhibition, 48 h
Activity calls are given as the source filed them. Rule as the data show it: active = GI50 up to about 1.1 µM and inactive = higher.
Give your call using only these classes: active, inactive

Use the examples below as a reference point.
CNc1cc2c(c3ccccc13)C(CCl)CN2C(=O)c1cc2cc(OC)c(OC)c(OC)c2[nH]1 (stereo not given)
active
O=[N+]([O-])C(=C1NCCN1)C(Cl)=C(Cl)Cl
inactive

Prompt: Assay result, entry [O-][n+]1c2ccccc2[n+]([O-])c2cc(Br)ccc21 — outcome?
Response: inactive

---

System: PC-3
Assay: NCI tumour cell line growth inhibition, 48 h
Activity calls are given as the source filed them. Rule as the data show it: active = GI50 up to about 1.1 µM and inactive = higher.
Give your call using only these classes: true (1) for active, false (0) for inactive

Use the examples below as a reference point.
O=c1[nH]c(=O)n(CCOc2ccccc2)cc1Nc1ccccc1
false (0)
COc1ccc(CCN2CCOCC2)cc1
false (0)
CSc1nc(NC2CC2)c2c(n1)Sc1nc3ccccc3n1N=C2
false (0)
COc1ccc(C2c3cc4c(cc3OC(Nc3ccccc3)C2C)OCO4)cc1 (configuration not stated)
false (0)
COc1ccc2c(C)cc(N/N=C/c3ccc(C)s3)nc2c1
false (0)
CC(C)(CCC(C)(C)N1OC1c1ccccc1)N1OC1c1ccccc1 (configuration not stated)
false (0)
CCOP(=O)(O)C(Nc1ccc(/N=N/c2ccccc2)cc1)c1cccc(C(Nc2ccc(/N=N/c3ccccc3)cc2)P(=O)(O)OCC)c1 (configuration not stated)
false (0)
COc1ccccc1Cn1nc(OC)c2cc([N+](=O)[O-])ccc21
false (0)
COc1ccc(/N=C\c2ccc(N(CCC#N)CCC#N)cc2)cc1
false (0)
CC(C)(C)c1cc[n+](C[n+]2ccc(C(C)(C)C)cc2)cc1
false (0)

Prompt: Assay result, entry Nc1ncnc2c1ncn2C1OC(CO)C(O)C(O)C1O (configuration not stated) — outcome?
Response: false (0)

Prompt: Assay result, entry COc1ccc(Nc2nnc(CCCCCCCCc3nnc(Nc4ccc(OC)cc4)o3)o2)cc1 — outcome?
Response: false (0)

---

Tested on: TK-10
Test: NCI tumour cell line growth inhibition, 48 h
Calls of active or inactive are those of the source. Rule as the data show it: active = GI50 up to about 1.1 µM and inactive = higher.
Give your call using only these classes: active, inactive

Use the examples below as a reference point.
CCC12CCCC(=O)N1C(CO)C(c1ccccc1)O2 (stereo unspecified)
inactive
COC(=O)C(=O)C(C(=O)C1=NS(=O)(=O)c2cc(S(N)(=O)=O)c(Cl)cc2N1)c1nc2ccc(C(=O)c3ccccc3)cc2nc1O (stereo unspecified)
inactive
Oc1ccc([I+]c2ccccc2)cc1O
inactive
O=[N+]([O-])c1ccc(C2=NOC(c3ccccc3)N2C23CC4CC(CC(C4)C2)C3)cc1 (stereo unspecified)
inactive
COc1cc(C2c3[nH]c4ccccc4c3[C@@H](Nc3ccc(C#N)cc3)[C@H]3COC(=O)N23)cc(OC)c1O (stereo partly specified)
active
COC(=O)C1=C(c2cc(OC)c(OC)c(OC)c2)OC(c2cc(OC)c(OC)c(OC)c2)C1COC(C)=O (stereo unspecified)
inactive
CC1(C)CC2(C)CC1CC2NC(=O)CCN1CCOCC1 (stereo unspecified)
inactive
c1cc2ccc1C1NCCCN1CCN1CCCNC1c1ccc(cc1)C1NCCCN1CCN1CCCNC21 (stereo unspecified)
inactive
C/C(=N\NC(=S)N(C)C)c1nc2cccnc2[nH]1
inactive
CN1CCN(C2=NCCO2)CC1
inactive

Prompt: Assay result, entry CCOc1ccc2c(c1)[n+]([O-])c(-c1ccccc1)c(N)[n+]2[O-] — outcome?
Response: inactive

Prompt: Assay result, entry O=C1C(Cl)C(c2ccc([N+](=O)[O-])cc2)N1n1cnc2ccccc2c1=O (stereo unspecified) — outcome?
Response: inactive

Prompt: Assay result, entry O=C1C=CC(=O)c2c1ccc1c3ccccc3n(CCCCCCCCn3c4ccccc4c4ccc5c(c43)C(=O)C=CC5=O)c21 — outcome?
Response: inactive

Prompt: Assay result, entry CCOC(=O)c1c(-c2[nH]c(C(=O)OCc3ccccc3)c(C)c2C(=O)OCC)[nH]c(C(=O)OCc2ccccc2)c1C — outcome?
Response: inactive

Prompt: Assay result, entry CC(C)(CC#N)c1cc(CC(C)(C)c2cc(CC(C)(C)c3cc(C(C)(C)C4(C)OCCO4)no3)no2)no1 — outcome?
Response: inactive

Prompt: Assay result, entry Cc1ncc2c(=O)c3c(oc2n1)c1ccccc1n3Cc1ccccc1 — outcome?
Response: inactive

Prompt: Assay result, entry COc1ccc2c(C)cc(N/N=C/c3ccc(C)s3)nc2c1 — outcome?
Response: inactive

Prompt: Assay result, entry O=C(O)CN(c1ccc(Cl)cc1)S(=O)(=O)c1ccccc1 — outcome?
Response: inactive

Prompt: Assay result, entry CC(NC(=O)c1ccc(OP(=O)(OCc2ccc([N+](=O)[O-])o2)N(C)CCCCCl)cc1)c1ccc(OCC2CCCCC2)c(C(N)=O)c1 (stereo unspecified) — outcome?
Response: inactive

---

Below, each of the molecules is paired with its reported GI50 value.
Tested on: HT-29
Assay: NCI tumour cell line growth inhibition, 48 h
Active and inactive are the calls of the source. Cut-off read from the data, not from the text of the source: active = GI50 up to about 1.1 µM and inactive = higher.

CC1=CC(=O)N2C(OC[C@@H]2c2ccccc2)O1 (stereo partly specified)
> 100 µM (inactive)
O=c1ccc2c(Cl)cccc2o1
> 10 µM (inactive)
CC(Oc1ccccc1Cl)C(=O)NN1C(=O)CC(=O)N(c2ccc(Cl)cc2)C1=S (stereo unspecified)
47.8 µM (inactive)
CCc1c(C)c(C#N)c(=S)n(C2OC(COC(C)=O)C(OC(C)=O)C(OC(C)=O)C2OC(C)=O)c1-c1ccccc1 (stereo unspecified)
> 31.6 µM (inactive)
CCOC(=O)/C=C(\C)c1ccc(C)cc1C
> 100 µM (inactive)

Prompt: Item under review: O=C(O)CCSC(=S)Nc1ccc([N+](=O)[O-])cc1 . Reported GI50?
Response: > 94 µM (inactive)

Prompt: Item under review: CC1CCOc2ccc(cc2)/C=N\c2ccc(cc2)CCc2ccc(cc2)/N=C\c2ccc(cc2)OCC1 . Reported GI50?
Response: > 100 µM (inactive)

Prompt: Item under review: CC(N)/C(N)=N/O (stereo unspecified) . Reported GI50?
Response: > 100 µM (inactive)

Prompt: Item under review: COC(=O)C1=C(c2cc(OC)c(OC)c(OC)c2)OC(c2cc(OC)c(OC)c(OC)c2)C1COC(C)=O (stereo unspecified) . Reported GI50?
Response: 35.5 µM (inactive)

Prompt: Item under review: O=C1CCC(C(=O)O)C2=C1CCCC2 (stereo unspecified) . Reported GI50?
Response: > 100 µM (inactive)

Prompt: Item under review: CC(=O)OCC1OC(c2nc3ccccc3s2)=CC(OC(C)=O)C1OC(C)=O (stereo unspecified) . Reported GI50?
Response: > 100 µM (inactive)

---

Test system: UACC-62
Assay: NCI tumour cell line growth inhibition, 48 h
Calls of active or inactive are those of the source. Rule as the data show it: active = GI50 up to about 1.1 µM and inactive = higher. Non-standard residues stand in square brackets, D forms with d. Residues, ends and D or L forms follow the SMILES beside them. *: point of attachment. NMeF = CN[CH](Cc1ccccc1)C(=O)O; NMeV = CN[CH](C(=O)O)C(C)C; Boc = CC(C)(C)OC(=O)*
Give your call using only these classes: active, inactive

Use the examples below as a reference point.
Cc1cnc2[nH]c(-c3ccccc3)cc(=O)c2c1
active
c1ccc2c(c1)c1ccccc1n2Cn1c2ccccc2c2ccccc21
inactive
CC(C)C(NC(=O)OC(C)(C)C)C(=O)N(C)C(Cc1ccccc1)C(=O)N(C)C(C(=O)O)C(C)C (stereo not drawn) (Boc-Val-[NMeF]-[NMeV]-OH; configuration not given here)
inactive
CN(C)Cc1ccc(-c2cc3onc(-c4ccccc4)c3c(=O)n2C)cc1
inactive
O=C1C=C(c2c(-c3ccccc3)[nH]c3ccccc23)C(=O)N1c1ccccc1
inactive

Prompt: Assay result, entry CC(C)CCCC(C)[C@H]1CCC2[C@@H]3CCC4Cc5nc6c(nc5C[C@]4(C)C3CC[C@@]21C)CC1CC[C@@H]2C(C[C@@H](O)[C@@]3(C)C2C[C@@H]2OC4(CCC(C)CO4)C(C)[C@@H]23)[C@@]1(C)C6 (stereo not given in full) — outcome?
Response: inactive

Prompt: Assay result, entry c1cc2ccc1C1NCCCN1CCN1CCCNC1c1ccc(cc1)C1NCCCN1CCN1CCCNC21 (stereo not given) — outcome?
Response: inactive

Prompt: Assay result, entry COc1ccc(-c2cc(=O)c3cc(O)ccc3o2)c(OC)c1OC — outcome?
Response: inactive

Prompt: Assay result, entry Oc1ncnc2c1CCCN2 — outcome?
Response: inactive

Prompt: Assay result, entry CCCn1c(=O)c2nn3c(=O)n(CCC)c(=O)c3nn2c1=O — outcome?
Response: inactive

Prompt: Assay result, entry Nc1ccc(C(=O)NN2C(=O)C(Cl)C2c2cccc([N+](=O)[O-])c2)cc1 (stereo not given) — outcome?
Response: inactive
